# System: MDA-MB-231 breast
# Run Description: NCI-60 one-dose screen, 48 h (100 = growth as untreated, 0 = no growth, -100 = all killed)
# Assay Setup: 10 µM unless noted
This is part of a sample that, as a whole, favours compounds with a hit. Of some 83,000 tested, about 20% had one in any assay.
Endpoint Label: growth (%)
Give bare numbers, in %.

For every item in the list below, what is its measured growth?
1. CC12CCC3C(CCC4CC(O)CCC43C)C1CCC2=O (configuration not stated)
2. CCOC(=O)P(=O)(OCC)OCC

1: 111; 2: 110

For every item in the list below, what is its measured growth?
1. CO/N=C1\CC[C@]2(C)[C@H]3CC[C@]4(C)C(=O)CC[C@H]4[C@@H]3C[C@@H]3SC(N)=N[C@@]32C1
2. c1ccc(CCN2CCCCC2)nc1
3. O=S(OO)c1cc(Cl)c(O)c(Cl)c1 (configuration not stated)
4. O=Cc1cn(Cc2ccccc2)c2ccccc12
5. CC/C(Cc1ccccc1)=C(\c1ccc(OCCN2CCCC2)cc1)c1ccc(OC(=O)NCc2ccccc2)cc1
6. O=S(=O)(c1ccc(O)cc1)c1ccccc1O
7. C[C@]12CCc3nc(-c4ccc(O)c(O)c4)sc3C1=CC[C@@H]1[C@@H]2CC[C@]2(C)C(=O)CC[C@@H]12
8. Cc1c2ccncc2c(C)c2c1[nH]c1ccccc12

1. 101
2. 97.8
3. 110
4. 92.7
5. 51.6
6. 98.9
7. 56
8. -68.9

For every item in the list below, what is its measured growth?
1. O=[N+]([O-])c1c(Cl)cc(Cl)c([N+](=O)[O-])c1Cl
2. C[C@]12CC[C@H]3[C@@H](CC=C4c5nc(N)sc5CC[C@@]43C)[C@@H]1CC[C@@H]2O
3. CC(=O)c1cccc(S(=O)(=O)F)c1
4. CCOP(=O)(NC)OCC
5. C[C@]12C[C@H](c3ccoc3)OC(=O)[C@H]1CC[C@@]1(C)[C@@H]2[C@H]2C=C[C@]1(O)C(=O)O2

1. 110
2. 111
3. 104
4. 104
5. 102

For every item in the list below, what is its measured growth?
1. Cc1cc[c-]cc1.Fc1c[c-]c(-c2ccccn2)c(F)c1.[Pt+2].c1ccc([PH+](c2ccccc2)c2ccccn2)cc1
2. Cc1ccc(P(=O)(O)O)cc1

[67.8, 98.6]

###

# System: A549/ATCC NSCLC
# Run Description: NCI-60 one-dose screen, 48 h (100 = growth as untreated, 0 = no growth, -100 = all killed)
# Assay Setup: 10 µM unless noted
Compounds without any hit were thinned out: in the full panel of roughly 83,000, 20% have a hit.
Endpoint Label: growth (%)
Numbers only, in %.

The examples below pair each entry with its known result.
[[record]]
compound = "CCOP(=O)(OCC)C(=O)N(CC)CC"
display_unit = "%"
result = 98.4

[[record]]
compound = "O=NN1CCCCC1"
display_unit = "%"
result = 102

[[record]]
compound = "CC12CCC3C4CCC(=O)C=C4CCC3C1CC1CC(=O)OC12 (stereo not drawn)"
display_unit = "%"
result = 84.5

[[record]]
compound = "Cn1cc(C(=O)C[n+]2ccccc2)c2ccccc21"
display_unit = "%"
result = 102

[[record]]
compound = "CC(C)COC(=O)Cc1ccccc1"
display_unit = "%"
result = 105

[[record]]
compound = "CC(=O)OC1CC2(O)C(CCC3(C)C(c4ccc(=O)oc4)CCC32O)C2(C)CCC(OC3OC(CO)C(O)C(O)C3O)C=C12 (stereo not drawn)"
display_unit = "%"
result = -72.9

[[record]]
compound = "O=C(NC(Cl)=C(Cl)Cl)P(=O)(c1ccccc1)c1ccccc1"
display_unit = "%"
result = 101

[[record]]
compound = "C#Cc1cccc(Nc2nc(Cl)nc3cc(NC(=O)CF)ccc23)c1"
display_unit = "%"
result = 55.4


For every item in the list below, what is its measured growth?
1. O=[N+]([O-])c1cc(Cl)c(Cl)c([N+](=O)[O-])c1Cl
2. NC(N)=NC(N)=Nc1ccc(Cl)cc1
3. C[C@]12CC[C@@H](OC(=O)N(CCCl)N=O)C[C@@H]1CC[C@@H]1[C@@H]2CC[C@]2(C)C(=O)CC[C@@H]12
4. N#CCN(CC#N)[N+](=O)[O-]
5. CC[C@H](C)[C@H]1O[C@]2(C=C[C@@H]1C)C[C@@H]1C[C@@H](C/C=C(\C)[C@@H](O[C@H]3C[C@H](OC)[C@@H](O[C@H]4C[C@H](OC)[C@@H](NC)[C@H](C)O4)[C@H](C)O3)[C@@H](C)/C=C/C=C3\CO[C@@H]4[C@H](O)C(C)=C[C@@H](C(=O)O1)[C@]34O)O2
6. CO[C@H]1[C@H](O[C@@H]2C[C@@H]3C/C=C/C(=O)O[C@@H](CO)C[C@H](O)[C@@H]4C[C@H](C)[C@H](C/C=C\C=C\[C@H](C)C[C@H](C2)O3)O4)O[C@@H](C)[C@H](O)[C@H]1O

[92.5, 111, 10.3, 106, -51.6, 47]
